- EXPERIMENTAL PARAMETERS: pampa
OBSERVABLE: permeability (×10⁻⁶ cm/s)

Observe how each entry below is paired with its result.
MOL SMILES | permeability, ×10⁻⁶ cm/s
COc1cc(CC(=O)Nc2nc3ccc(C(F)(F)F)cc3s2)cc(OC)c1OC | 7.2
COc1ccccc1CC(=O)Nc1nc2ccc(C(F)(F)F)cc2s1 | 11.2
O=C(Cc1cccc(C(F)(F)F)c1)Nc1nc2ccc(C(F)(F)F)cc2s1 | 6.4
O=C(Cc1cccc(Cl)c1)Nc1nc2ccc(C(F)(F)F)cc2s1 | 11.2

A. CN1C(C(=O)Nc2ccccn2)=C(O)c2ccccc2S1(=O)=O
B. Cc1ccc2nc(NC(=O)Cc3cccc(Cl)c3)sc2c1
C. COc1cc(CC(=O)Nc2nc3ccc(OC(F)(F)F)cc3s2)cc(OC)c1OC
D. COc1cccc(CC(=O)Nc2nc3ccc(C(F)(F)F)cc3s2)c1
Challenge: Please list these molecules in decreasing order of permeability. Write the labels out in the order the request specifies.
Response given: D, B, C, A

P. O=C(Cc1ccccc1)Nc1nc2ccc(C(F)(F)F)cc2s1
Q. O=C(Cc1ccc(Cl)cc1)Nc1nc2ccc(C(F)(F)F)cc2s1
R. O=C(Cc1ccc(Cl)c(Cl)c1)Nc1nc2ccc(C(F)(F)F)cc2s1
Challenge: # rank by permeability, ascending (min first) Write the labels out in the order the request specifies.
Response given: R, P, Q
